EC50 overview
Target: Peroxisome proliferator-activated receptor alpha (Homo sapiens)
Sequence (Q07869 whole entry, the tested form may be a part): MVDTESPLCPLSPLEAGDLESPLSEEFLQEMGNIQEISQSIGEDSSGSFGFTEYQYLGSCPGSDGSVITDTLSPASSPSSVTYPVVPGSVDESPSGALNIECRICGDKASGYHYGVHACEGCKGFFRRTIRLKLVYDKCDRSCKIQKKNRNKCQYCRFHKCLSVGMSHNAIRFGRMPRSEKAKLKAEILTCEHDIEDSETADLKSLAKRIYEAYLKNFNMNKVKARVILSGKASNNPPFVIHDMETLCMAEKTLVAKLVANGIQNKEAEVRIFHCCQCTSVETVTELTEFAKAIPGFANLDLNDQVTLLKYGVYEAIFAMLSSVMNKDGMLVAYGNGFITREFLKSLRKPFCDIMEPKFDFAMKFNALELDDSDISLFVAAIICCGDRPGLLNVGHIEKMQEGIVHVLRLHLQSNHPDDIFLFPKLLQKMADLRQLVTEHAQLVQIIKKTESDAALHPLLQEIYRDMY
Experiment: Agonist activity at GAL4-fused human PPAR-alpha transfected in African green monkey COS7 cells assessed transcriptional activation incubated for 16 hrs by Luciferase assay

[
  {
    "compound_structure_string": "Cc1cc(CN2CCN(c3ccc(Cl)cc3)C2=O)cc(C)c1OC(C)(C)C(=O)O",
    "unit_tag": "µM",
    "EC50": 1.02
  },
  {
    "compound_structure_string": "CCc1ccc(N2CCN(Cc3cc(C)c(OC(C)(C)C(=O)O)c(C)c3)C2=O)cc1",
    "unit_tag": "µM",
    "EC50": 0.0073
  },
  {
    "compound_structure_string": "Cc1cc(CN2CCN(c3ccccc3)C2=O)cc(C)c1OC(C)(C)C(=O)O",
    "unit_tag": "µM",
    "EC50": 0.436
  }
]

----------
pEC50 overview
Biological target: Peroxisome proliferator-activated receptor delta (Homo sapiens, UniProt Q03181)
Sequence (Q03181 whole entry): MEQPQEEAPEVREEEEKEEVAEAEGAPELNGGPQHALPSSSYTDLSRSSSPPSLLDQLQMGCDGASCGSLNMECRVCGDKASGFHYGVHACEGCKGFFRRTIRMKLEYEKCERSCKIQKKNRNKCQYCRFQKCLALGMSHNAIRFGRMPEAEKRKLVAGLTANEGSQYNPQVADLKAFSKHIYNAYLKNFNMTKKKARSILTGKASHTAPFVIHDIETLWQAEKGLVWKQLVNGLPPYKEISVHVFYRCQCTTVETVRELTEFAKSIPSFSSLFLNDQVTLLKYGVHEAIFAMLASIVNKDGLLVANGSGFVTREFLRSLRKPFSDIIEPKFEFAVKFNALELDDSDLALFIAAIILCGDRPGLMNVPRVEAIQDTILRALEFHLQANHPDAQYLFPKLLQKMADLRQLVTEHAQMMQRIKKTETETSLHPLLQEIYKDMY
Experiment: Agonist activity at GAL4-fused human PPAR-delta transfected in African green monkey COS7 cells assessed transcriptional activation incubated for 16 hrs by Luciferase assay
pEC50: −log10 of the molar value.

[
  {
    "compound_structure_string": "Cc1cc(CN2CCN(c3ccccc3)C2=O)cc(C)c1OC(C)(C)C(=O)O",
    "rel": "=",
    "pEC50": 6.59
  },
  {
    "compound_structure_string": "COc1ccc(N2CCN(Cc3cc(C)c(OC(C)(C)C(=O)O)c(C)c3)C2=O)cc1",
    "rel": "=",
    "pEC50": 6.58
  },
  {
    "compound_structure_string": "Cc1cc(CN2CCN(c3ccc(OC(F)(F)F)cc3)C2=O)cc(C)c1OC(C)(C)C(=O)O",
    "rel": "=",
    "pEC50": 7.43
  },
  {
    "compound_structure_string": "Cc1cc(CN2CCN(c3ccc(C(C)(C)C)cc3)C2=O)cc(C)c1OC(C)(C)C(=O)O",
    "rel": "<",
    "pEC50": 5.30
  },
  {
    "compound_structure_string": "Cc1cc(CN2CCN(c3ccc(C(C)C)cc3)C2=O)cc(C)c1OC(C)(C)C(=O)O",
    "rel": "=",
    "pEC50": 7.16
  },
  {
    "compound_structure_string": "Cc1cc(CN2CCN(c3ccc(F)cc3)C2=O)cc(C)c1OC(C)(C)C(=O)O",
    "rel": "=",
    "pEC50": 7.41
  },
  {
    "compound_structure_string": "Cc1cc(CN2CCN(c3ccccc3C(F)(F)F)C2=O)cc(C)c1OC(C)(C)C(=O)O",
    "rel": "<",
    "pEC50": 5.30
  },
  {
    "compound_structure_string": "Cc1cc(CN2CCN(c3cccc(C(F)(F)F)c3)C2=O)cc(C)c1OC(C)(C)C(=O)O",
    "rel": "=",
    "pEC50": 7.39
  }
]
